- System: glycogen synthase kinase-3 (GSK3A per assay name; protocol says GSK3B)
- Assay method text: GSK3 binders on small-molecule microarrays, primary screen, biochemical, small-molecule microarray, 635 nm fluorescence, GSK3A (AID 1103); further: the record names both GSK3A and GSK3B
- Condition: small-molecule microarray binding, fluorescence 635 nm; higher = more signal
Property label: composite z-score
Lab note: record the figure alone, no unit after it.

Compound: O=C1N(Cc2ccccc2)c2ccccc2[C@@H]2OC(c3ccc(OCCCO)cc3)=N[C@]12Cc1ccccc1
Property label: composite z-score
Experimental result: 0.852

Compound: CCCC[C@@H](O)C1=C(COc2ccccc2)C[C@H]2C(=O)N(C)C(=O)[C@H]2[C@H]1CO
Property label: composite z-score
Experimental result: -0.0425

Compound: CCOC(=O)C[C@H]1[C@H](OC(=O)c2cc3ccccc3oc2=O)[C@@H](NC(=O)c2ccc(-c3ccccc3)cc2)c2cc(OCCCO)ccc2N1C(=O)c1ccc2ccccc2n1
Property label: composite z-score
Experimental result: 1.01

Compound: [N-]=[N+]=Nc1ccccc1[C@@H]1OC(c2ccc(OCCCO)cc2)=N[C@]1(Cc1ccccc1)C(=O)NCC(O)CO (some centres not stated)
Property label: composite z-score
Experimental result: -0.216

Compound: O=C(CS)NCCCCCNC(=O)[C@@H]1C[C@@H]2C(=O)N3CCC[C@H]3C(=O)N2[C@@H]1c1cccc(OCCO)c1
Property label: composite z-score
Experimental result: 0.649

Compound: C=CCOC(=O)[C@H]1[C@@H]2C(=O)O[C@@H](c3ccccc3)[C@@H](c3ccccc3)N2[C@@H](c2ccc(OCCOC(=O)[C@@H]3C[C@@H]4C(=O)N[C@@H](CCCCNC(C)=O)C(=O)N4[C@@H]3c3ccc(O)cc3)cc2)[C@]12C(=O)Nc1ccc(I)cc12
Property label: composite z-score
Experimental result: 1.27

(Q) Tell me the measured composite z-score of `CCCC[C@@H]1C[C@H]1[C@@H](NC(=O)c1cccs1)c1ccc(C(F)(F)F)cc1` , please.
(A) -0.776

###

- System: Wnt5a (protein binding on small-molecule microarray)
- Assay method text: Wnt5a binders on small-molecule microarray, primary screen, biophysical, 635/667 nm fluorescence (AID 1142);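 further: fluorescence read at 667 nm with signal to noise per printed feature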
- Condition: 635 nm fluorescence, higher = more signal
Below is a list of entries, each paired with its recorded composite z-score value.
Lab note: record the figure alone, no unit after it.

Input smiles: CC(C)C(=C=CC[C@H](O)c1cccc(OCCO)c1)C[C@H](O)c1cc(Cl)cc(Cl)c1O
Experimental result: 0.255

(Q) Lookup: composite z-score / Wnt5a (protein binding on small-molecule microarray) / `CCCC[C@@H](O)C1=C(COc2ccccc2)C[C@H]2C(=O)N(C)C(=O)[C@H]2[C@H]1CO`
(A) -0.339

(Q) Lookup: composite z-score / Wnt5a (protein binding on small-molecule microarray) / `C[C@]1(C(=O)NC2CC2)c2ccccc2C(=O)N(Cc2ccccc2)[C@H]1c1ccc(CO)cc1`
(A) -0.228

(Q) Lookup: composite z-score / Wnt5a (protein binding on small-molecule microarray) / `Cc1ccc(S[C@]2(C(=O)NCCCN(C)C)CC(=O)N(C3CCCCC3)[C@@H]2c2ccc(CO)cc2)cc1`
(A) -0.178

(Q) Lookup: composite z-score / Wnt5a (protein binding on small-molecule microarray) / `COc1cccc(/C=C/C=O)c1`
(A) 0.279

###

- Tested on: E3 ubiquitin-protein ligase XIAP (Homo sapiens) (UniProt P98170)
- Sequence (P98170 whole entry, looked up): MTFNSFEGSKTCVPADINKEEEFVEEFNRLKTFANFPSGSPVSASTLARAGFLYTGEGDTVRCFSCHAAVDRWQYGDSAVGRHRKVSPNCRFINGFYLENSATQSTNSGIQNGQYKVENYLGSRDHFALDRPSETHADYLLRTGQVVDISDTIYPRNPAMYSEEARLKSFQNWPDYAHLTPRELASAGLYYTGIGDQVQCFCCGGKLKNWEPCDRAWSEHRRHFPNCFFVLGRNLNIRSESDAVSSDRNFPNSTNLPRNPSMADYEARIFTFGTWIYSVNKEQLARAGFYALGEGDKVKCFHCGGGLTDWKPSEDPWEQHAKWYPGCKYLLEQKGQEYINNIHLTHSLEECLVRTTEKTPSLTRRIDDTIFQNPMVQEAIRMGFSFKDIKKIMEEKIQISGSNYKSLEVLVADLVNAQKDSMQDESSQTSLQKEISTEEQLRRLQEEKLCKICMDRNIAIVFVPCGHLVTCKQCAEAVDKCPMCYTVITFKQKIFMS
- Assay method text: XIAP binders, primary screen, biophysical, small-molecule microarray, fluorescence 635 nm (AID 1181);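 further: score merges 667 nm emission and signal to noise over triplicate slides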
- Condition: small-molecule microarray binding, higher = more signal
Please use Yes whenever composite z-score is not below 0.2, and No whenever it is.

(Q) Is composite z-score for `COCCCNC(=O)[C@@]1(Cc2ccccc2N=[N+]=[N-])N=C(c2ccc(OCCCO)cc2)O[C@H]1c1ccccc1` at or above 0.2?
(A) Yes

(Q) Is composite z-score for CCOC(=O)C1CCCCN1 (stereo not given) at or above 0.2?
(A) No

(Q) Is composite z-score for `CC(C)N1C(=O)c2ccccc2[C@@H](C(=O)NC2CC2)[C@@H]1c1ccc(CO)cc1` at or above 0.2?
(A) No

(Q) Is composite z-score for `C=C(/C(=C/C[C@H](OC(C)=O)c1cccc(OCCO)c1)c1cnc2ccccc2c1)C(C)C` at or above 0.2?
(A) No

(Q) Is composite z-score for CN1C(=O)C2C=CC(C(O)c3ccccn3)N(N(c3ccccc3)c3ccccc3)C2C1=O (stereo not given) at or above 0.2?
(A) Yes

###

- Assay method text: small-molecule binders of probe aNOTCH2, primary screen, biochemical, small-molecule microarray, 635/667 nm fluorescence (AID 1121);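 further: score merges feature fluorescence read at 667 nm with its signal to noise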
- Condition: higher = more signal
Below is a list of entries, each paired with its recorded composite z-score value.

Molecule: CC1CC/C=C\[C@H]2OC34C=CCN(c5ccc(Cl)cc5)C(=O)[C@H]3N(CCCCCO)C(=O)[C@]4(C)C2C(=O)O1 (some centres not stated)
composite z-score: -0.117
//
Molecule: Cc1cc(C)c(C(O)C2C=CC3C(=O)NC(=O)C3N2Nc2ccc(Cl)cc2Cl)c(C)c1 (configuration not stated)
composite z-score: -0.0125
//
Molecule: COCCCNC(=O)[C@@]1(Sc2ccc(C)cc2)CC(=O)N(C2CCCCC2)[C@@H]1c1ccc(CO)cc1
composite z-score: -0.12
//
Molecule: NCCCCCCNC(=O)[C@@H]1C[C@@H]2C(=O)N[C@@H](CCCCN)C(=O)N2[C@@H]1c1cccc(OCCO)c1
composite z-score: 0.163
//
Molecule: CCOC(=O)C[C@H]1[C@H](OC(=O)c2ccccc2-c2ccccc2)[C@@H](NC(=O)c2ccc(-c3ccccc3)cc2)c2cc(OCCCO)ccc2N1C(=O)c1ccc2ccccc2n1
composite z-score: -0.0441
//
Molecule: CO[C@H]1O[C@H](CO)[C@@H](OC(=O)Nc2ccccc2-c2ccccc2)[C@H](OC(=O)Nc2ccc3c(c2)OCO3)[C@H]1OC(=O)Nc1ccc2c(c1)OCO2
composite z-score: -0.103

(Q) Tell me the measured composite z-score of `COC(=O)[C@@]1(Cc2ccc(OC)cc2)[C@H]2c3cc(C(=O)N4CCCC4)n(Cc4cccc5ccccc45)c3C[C@H]2CN1C(=O)c1ccccc1` , please.
(A) 0.377

###

- Assay method text: small-molecule binders of probe aNOTCH3, primary screen, biochemical, small-molecule microarray, 635/667 nm fluorescence (AID 1120);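 further: probe is a biotin-tagged antibody raised against NOTCH3 rather than NOTCH3 protein; score merges spot fluorescence near 667 nm with spot signal to noise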
- Condition: higher = more signal
Below is a list of entries, each paired with its recorded composite z-score value.
Lab note: record the figure alone, no unit after it.

Field: example entries. Status: answers known.
Compound: [N-]=[N+]=Nc1ccccc1[C@@H]1OC(c2ccc(OCCCO)cc2)=N[C@]1(Cc1ccccc1)C(=O)NCC(O)CO (some centres undefined)
composite z-score: 0.453
//
Compound: COCCOC(=O)N1C(=O)[C@@]2(c3cc(C#CC4=CCCCC4)ccc31)[C@H](c1ccccc1OCCO)N1[C@H](c3ccccc3)[C@H](c3ccccc3)OC(=O)[C@H]1[C@@H]2C(=O)Nc1nc2ccccc2s1
composite z-score: 0.158
//
Compound: NCCCCCCNC(=O)[C@@H]1C[C@@H]2C(=O)N[C@@H](CCCCN)C(=O)N2[C@@H]1c1cccc(OCCO)c1
composite z-score: 0.645

Now for another entry.
(Q) Tell me the measured composite z-score of `CCC[C@@H]1C[C@@]1(CCC)[C@@H](NC(=O)OCc1ccccc1)c1ccc(-c2ccccc2)cc1` , please.
(A) 0.112

###

- Test system: Wnt5a (protein binding on small-molecule microarray)
- Assay method text: Wnt5a binders on small-molecule microarray, primary screen, biophysical, 635/667 nm fluorescence (AID 1142);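 further: fluorescence read at 667 nm with signal to noise per printed feature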
- Condition: 635 nm fluorescence, higher = more signal
Below is a list of entries, each paired with its recorded composite z-score value.
Lab note: record the figure alone, no unit after it.

Field: example entries. Status: answers known.
Molecule: CC=CC(O)C1C=CC2C(=O)N(c3ccccc3)C(=O)C2N1Nc1ccccc1F (stereo not drawn)
Experimental result: 0.713

Molecule: CC(C)(C)OC(=O)CC[C@]1(C(=O)NCC(O)CO)N=C(c2ccc(OCCCO)cc2)O[C@H]1c1ccccc1 (stereo partly drawn)
Experimental result: 0.167

Molecule: O=C(NCC(F)(F)F)[C@@H]1c2ccccc2C(=O)N(Cc2cc(F)cc(C(F)(F)F)c2)[C@H]1c1ccc(CO)cc1
Experimental result: -0.328

Now for another entry.
(Q) Lookup: composite z-score / Wnt5a (protein binding on small-molecule microarray) / `[N-]=[N+]=Nc1ccccc1C[C@]1(C(N)=O)N=C(c2ccc(OCCCO)cc2)O[C@H]1c1ccccc1N=[N+]=[N-]`
(A) 0.611

###

- Assay method text: basal MM1S mitochondrial membrane potential changes, profiling panel, cell-based, JC-1 fluorescence, 24 h, 100 nL compound (AID 1170); further: test concentration not given here
- Condition: higher = more signal
Below is a list of entries, each paired with its recorded z-score value.
Lab note: record the figure alone, no unit after it.

Compound: CC(C)(C)N1CC=CC23O[C@@H]4C=CCOC(=O)[C@@H]4[C@H]2C(=O)N(CCCCCCO)[C@@H]3C1=O (some centres undefined)
z-score: -0.112
--
Compound: CC1=C[C@@]2(CO)C(=O)[C@]3(CO3)[C@@H]1[C@H]1[C@]2(C)C=C(CO)C(=O)[C@]12CO2
z-score: -2.11

(Q) Tell me the measured z-score of `[N-]=[N+]=NCc1ccccc1C[C@@]1(C(=O)N2CCCCC2)N=C(c2ccc(OCCCO)cc2)O[C@@H]1c1ccccc1` , please.
(A) -2.34

(Q) Tell me the measured z-score of `CCOC(=O)[C@H]1[C@@H]2C(=O)N3CCC[C@H]3[C@H](O[Si](C(C)C)(C(C)C)C(C)C)[C@H]2C=C2CCN(S(=O)(=O)c3ccc(C)cc3)C[C@H]21` , please.
(A) -0.814
